# Test system: WNK2
# MEASUREMENT CONTEXT: concentration: 1 μM, replicates: in singlicate; n = 1;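 note: KINOMEscan kinase panel screen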
Quick reference for %Inh among some compounds
# unit: % | format: bare number

Sample answers from the record:
>>> numeric_readout("Nc1ncc(-c2ccc3nccc(-c4ccncc4)c3c2)cc1S(=O)(=O)N1CCOCC1")
0
>>> numeric_readout("O=C(NC1CCN(c2ccnc(Nc3ccc(F)cc3)n2)C1)c1cc2ccccc2s1 (stereo not shown)")
22
>>> numeric_readout("O=C(Nc1n[nH]c2cc(-c3ccoc3)ccc12)C1CC1")
0

For the next question, use this compound.
Ask: Give %Inh for COC(=O)Nc1nc2ccc(Oc3ccc(NC(=O)Nc4cc(C(F)(F)F)ccc4F)cc3)cc2n1C.Cl
Result: 0

* * *

# System: RIOK3
# MEASUREMENT CONTEXT: concentration: 1 μM, replicates: in singlicate; n = 1
// map %Inh to label using 1 (below 5%), 2 (5% to below 30%), 3 (30% or more)

>>> class("FC(F)(F)c1ccc(/C=C/c2cncnc2Nc2ccc3[nH]c(Cc4ccccc4)nc3c2)cc1")
1
>>> class("C[C@@H]1CC[C@@H](C(=O)Nc2ccccc2)CN1c1cc(-c2ccc3c(N)n[nH]c3c2)nc(N)n1")
2
>>> class("CN1CCN(CCCNc2nccc(-c3c(-c4ccc(F)cc4)nn4cc(C(F)(F)F)ccc34)n2)CC1")
1
>>> class("COc1ccc(Nc2nccc(N3CCC(NC(=O)Nc4cccc(OC)c4)C3)n2)cc1 (stereo not drawn)")
2
>>> class("O=C(Nc1cccc(Oc2ccc3nc(NC(=O)C4CC4)cn3n2)c1)c1ccccc1C(F)(F)F")
3
>>> class("NCCCC(NC(=O)c1cc(Br)c(-c2ccnc3[nH]ccc23)s1)c1ccccc1.O=C(O)C(F)(F)F.O=C(O)C(F)(F)F (stereo not drawn)")
3
>>> class("Cl.c1ccc(-c2ccc3c(Nc4ccc5[nH]ccc5c4)ccnc3c2)nc1")
1
>>> class("Nc1ncc(-c2ccc3nccc(-c4ccncc4)c3c2)cc1S(=O)(=O)N1CCOCC1")
2
>>> class("COCCOCCOc1cc2ncc3c4ccc(C#N)cc4[nH]c3c2cc1OC")
3
>>> class("COc1cc(Nc2nccc(-c3c(-c4cccc(NC(=O)c5c(F)cccc5F)c4)nn4ncccc34)n2)cc(OC)c1OC")
2

Turning now to a further compound:
Ask: Form: Item = c1ccc(-c2cnc3nccnn23)cc1 ; Class = ?
Result: 1

* * *

# Tested on: PFTK1
# Construct: gene CDK14
# MEASUREMENT CONTEXT: concentration: 1 μM, replicates: in singlicate; n = 1
PARAMETER MEASURED: %Inh (%)
Give just the number in %; leave the unit off.

As a guide, the following entries are already answered.
>>> numeric_readout("COc1ccc(Nc2nccc(NCCNC(=O)c3cc4ccccc4s3)n2)cc1")
18
>>> numeric_readout("COc1cccc(C(=O)Nc2cccc(Oc3ccc4nc(NC(=O)C5CC5)cn4n3)c2)c1")
4
>>> numeric_readout("Cn1cc(-c2ccc3c(c2)CCN3C(=O)Cc2cccc(F)c2)c2c(N)ncnc21")
18
>>> numeric_readout("O=C(O)C(F)(F)F.O=C(O)C(F)(F)F.O=c1[nH]ccc2nc(N[C@@H]3CCCNC3)nc(Nc3ccc(S(=O)(=O)N4CCOCC4)cc3)c12")
65
>>> numeric_readout("O=C(Nc1n[nH]c2nc(-c3ccc(O)cc3)ccc12)C1CC1")
14
>>> numeric_readout("CC(=O)N1CCN(c2ccc(Nc3nccc(-c4sc(C(C)C)nc4-c4cccc(NS(=O)(=O)c5cccc(Cl)c5)c4)n3)cn2)CC1")
57
>>> numeric_readout("COc1ccc(CNC(=O)NC2CCN(c3ccnc(Nc4ccc(F)cc4)n3)CC2)cc1")
13
>>> numeric_readout("COc1cccc(-c2ccc3c(NC(=O)C4CC4)n[nH]c3n2)c1")
25

Ask: Item CCn1c(-c2nonc2N)nc2c(C#CC(C)(C)O)ncc(OCCCCN)c21.O=C(O)C(F)(F)F.O=C(O)C(F)(F)F : provide %Inh
Result: 32

Ask: Output %Inh of O=c1[nH]cc(-c2ccc(N3CCOCC3)cc2)c2sc(-c3cn[nH]c3)cc12
Result: 42

Ask: # return recorded %Inh for input O=C(Nc1cccc(Oc2ccc3nc(NC(=O)C4CC4)cn3n2)c1)c1ccccc1C(F)(F)F
Result: 0

Ask: For the molecule Cc1ccc(C(=O)N2CC[C@@H](O)C2)cc1-n1c(C)cc(OCc2ccc(F)cc2F)c(Br)c1=O , give its measured %Inh value.
Result: 12

Ask: Please report the measured %Inh for CN1CCN(Cc2cccc(-c3ccc4c(Nc5ccc(Oc6ccccc6)cc5)ccnc4c3)c2)CC1
Result: 23

Ask: Supply recorded %Inh for Cc1ccc(C)c(NC(=O)NC2CCN(c3ccnc(Nc4ccc(F)cc4)n3)C2)c1 (stereo not shown) here.
Result: 0

Ask: Provide %Inh value for the following molecule: CCCCc1nn2ncccc2c1-c1ccnc(Nc2ccc(N3CCN(C)CC3)cc2)n1
Result: 0

Ask: Give the value of %Inh reported for the following: COC(=O)Nc1nc2ccc(Oc3ccc(NC(=O)Nc4cc(C(F)(F)F)ccc4F)cc3)cc2n1C.Cl
Result: 4
